Attribution: ChEMBL document CHEMBL3885861

Species: Rattus norvegicus
Test: Open TG-GATES - Regimen: Single
Assay type: toxicity, organism-based, Sprague-Dawley
Set-up: regimen Single, gender Male, age 6 weeks
Conditions: in vivo, po, 300 mg/kg, 6 h, tissue Plasma, route gavage, dose level Middle
ENDPOINT: BUN (mg/dL)
Quick reminder: number only, in mg/dL, skip the unit.

Q. # input molecule: "CNC(=C[N+](=O)[O-])NCCSCc1ccc(CN(C)C)o1" ; wanted: its BUN
A. 8.4

Q. And "Cc1nnc2n1-c1ccc(Cl)cc1C(c1ccccc1Cl)=NC2" ?
A. 10.2

Q. And "CN/C(=N/CCSCc1nc[nH]c1C)NC#N" ?
A. 8.4

* * *

Species: Rattus norvegicus
Assay: Open TG-GATES - Regimen: Single
Assay type: toxicity, organism-based, Sprague-Dawley
Set-up: regimen Single, gender Male, age 6 weeks
Conditions: in vivo, po, 100 mg/kg, 3 h, tissue Plasma, route gavage, dose level Low
LDH strictly under 90 IU/L means criterion met; at 90 IU/L or over means criterion not met.

Q. Lab note: confirm whether the reported LDH for this compound is below 90 IU/L, equality not counting. compound: CNC(=C[N+](=O)[O-])NCCSCc1ccc(CN(C)C)o1 [RANITIDINE]
A. criterion not met

Q. And Cc1nnc2n1-c1ccc(Cl)cc1C(c1ccccc1Cl)=NC2 [TRIAZOLAM] ?
A. criterion met

Q. And CN/C(=N/CCSCc1nc[nH]c1C)NC#N [CIMETIDINE] ?
A. criterion not met

Q. And O=C(OC[C@H]1O[C@@H](OC(=O)c2cc(O)c(O)c(OC(=O)c3cc(O)c(O)c(O)c3)c2)[C@H](OC(=O)c2cc(O)c(O)c(OC(=O)c3cc(O)c(O)c(O)c3)c2)[C@@H](OC(=O)c2cc(O)c(O)c(OC(=O)c3cc(O)c(O)c(O)c3)c2)[C@@H]1OC(=O)c1cc(O)c(O)c(OC(=O)c2cc(O)c(O)c(O)c2)c1)c1cc(O)c(O)c(OC(=O)c2cc(O)c(O)c(O)c2)c1 [TANNIC ACID] ?
A. criterion met

* * *

Species: Rattus norvegicus
Experiment: Open TG-GATES - Regimen: Daily Repeat
Assay type: toxicity, organism-based, Sprague-Dawley
Parameters: regimen Daily Repeat, gender Male, age 6 weeks
Conditions: in vivo, po, 300 mg/kg, […], tissue Blood, route gavage, dose level Middle, time 7 day
ENDPOINT: Fbg (mg/dL)
Quick reminder: number only, in mg/dL, skip the unit.

Q. # input compound: "CNC(=C[N+](=O)[O-])NCCSCc1ccc(CN(C)C)o1" ; wanted: its Fbg
A. 227.4

Q. And "O=C(OC[C@H]1O[C@@H](OC(=O)c2cc(O)c(O)c(OC(=O)c3cc(O)c(O)c(O)c3)c2)[C@H](OC(=O)c2cc(O)c(O)c(OC(=O)c3cc(O)c(O)c(O)c3)c2)[C@@H](OC(=O)c2cc(O)c(O)c(OC(=O)c3cc(O)c(O)c(O)c3)c2)[C@@H]1OC(=O)c1cc(O)c(O)c(OC(=O)c2cc(O)c(O)c(O)c2)c1)c1cc(O)c(O)c(OC(=O)c2cc(O)c(O)c(O)c2)c1" ?
A. 226

Q. And "Cc1nnc2n1-c1ccc(Cl)cc1C(c1ccccc1Cl)=NC2" ?
A. 262.6

Q. And "CN/C(=N/CCSCc1nc[nH]c1C)NC#N" ?
A. 222.6

Q. And "COC(=O)C1=C(C)NC(C)=C(C(=O)OC)C1c1ccccc1[N+](=O)[O-]" ?
A. 292.6

Q. And "CCOc1ccc(NC(C)=O)cc1" ?
A. 302.6

* * *

Please provide measured Cl for the entries that follow.
Organism: Rattus norvegicus
Assay: Open TG-GATES - Regimen: Daily Repeat
Format: toxicity, organism-based, Sprague-Dawley
Set-up: regimen Daily Repeat, gender Male, age 6 weeks
Details: in vivo, po, 300 mg/kg, […], tissue Plasma, route gavage, dose level Middle, time 14 day
Quick reminder: number only, in meq/L, skip the unit.

Q. # input molecule: Cc1nnc2n1-c1ccc(Cl)cc1C(c1ccccc1Cl)=NC2 [TRIAZOLAM] ; wanted: its Cl
A. 104.6

Q. And CNC(=C[N+](=O)[O-])NCCSCc1ccc(CN(C)C)o1 [RANITIDINE] ?
A. 103.6

Q. And COC(=O)C1=C(C)NC(C)=C(C(=O)OC)C1c1ccccc1[N+](=O)[O-] [NIFEDIPINE] ?
A. 107.6

Q. And CN/C(=N/CCSCc1nc[nH]c1C)NC#N [CIMETIDINE] ?
A. 102

Q. And O=C(OC[C@H]1O[C@@H](OC(=O)c2cc(O)c(O)c(OC(=O)c3cc(O)c(O)c(O)c3)c2)[C@H](OC(=O)c2cc(O)c(O)c(OC(=O)c3cc(O)c(O)c(O)c3)c2)[C@@H](OC(=O)c2cc(O)c(O)c(OC(=O)c3cc(O)c(O)c(O)c3)c2)[C@@H]1OC(=O)c1cc(O)c(O)c(OC(=O)c2cc(O)c(O)c(O)c2)c1)c1cc(O)c(O)c(OC(=O)c2cc(O)c(O)c(O)c2)c1 [TANNIC ACID] ?
A. 103.4

* * *

Please provide measured PT for the entries that follow.
Species on record: Rattus norvegicus
Test: Open TG-GATES - Regimen: Single
Format: toxicity, organism-based, Sprague-Dawley
Set-up: regimen Single, gender Male, age 6 weeks
Settings: in vivo, po, 1000 mg/kg, 24 h, tissue Blood, route gavage, dose level High
Quick reminder: number only, in s, skip the unit.

Q. # input molecule: "O=C(OC[C@H]1O[C@@H](OC(=O)c2cc(O)c(O)c(OC(=O)c3cc(O)c(O)c(O)c3)c2)[C@H](OC(=O)c2cc(O)c(O)c(OC(=O)c3cc(O)c(O)c(O)c3)c2)[C@@H](OC(=O)c2cc(O)c(O)c(OC(=O)c3cc(O)c(O)c(O)c3)c2)[C@@H]1OC(=O)c1cc(O)c(O)c(OC(=O)c2cc(O)c(O)c(O)c2)c1)c1cc(O)c(O)c(OC(=O)c2cc(O)c(O)c(O)c2)c1" ; wanted: its PT
A. 11.8

Q. And "CN/C(=N/CCSCc1nc[nH]c1C)NC#N" ?
A. 13

Q. And "CNC(=C[N+](=O)[O-])NCCSCc1ccc(CN(C)C)o1" ?
A. 11.7

Q. And "Cc1nnc2n1-c1ccc(Cl)cc1C(c1ccccc1Cl)=NC2" ?
A. 13

Q. And "COC(=O)C1=C(C)NC(C)=C(C(=O)OC)C1c1ccccc1[N+](=O)[O-]" ?
A. 13.7

* * *

Organism: Rattus norvegicus
Test: Open TG-GATES - Regimen: Single
Type: toxicity, organism-based, Sprague-Dawley
Design: regimen Single, gender Male, age 6 weeks
Details: in vivo, po, 0 mg/kg, 3 h, tissue Plasma, route gavage, dose level Control
K strictly under 4 meq/L means 1.0; at 4 meq/L or over means 0.0.

Q. Lab note: confirm whether the reported K for this molecule is below 4 meq/L, equality not counting. molecule: "CCOc1ccc(NC(C)=O)cc1"
A. 0.0

Q. And "Cc1nnc2n1-c1ccc(Cl)cc1C(c1ccccc1Cl)=NC2" ?
A. 0.0

Q. And "CN/C(=N/CCSCc1nc[nH]c1C)NC#N" ?
A. 1.0

Q. And "COC(=O)C1=C(C)NC(C)=C(C(=O)OC)C1c1ccccc1[N+](=O)[O-]" ?
A. 0.0

Q. And CN1C(=O)CCS(=O)(=O)C1c1ccc(Cl)cc1 (stereo not given) ?
A. 0.0

Q. And "CNC(=C[N+](=O)[O-])NCCSCc1ccc(CN(C)C)o1" ?
A. 1.0

Q. And "CCCc1cc(=O)[nH]c(=S)[nH]1" ?
A. 0.0

* * *

Please provide measured RBC for the entries that follow.
Organism: Rattus norvegicus
Assay: Open TG-GATES - Regimen: Daily Repeat
Type: toxicity, organism-based, Sprague-Dawley
Parameters: regimen Daily Repeat, gender Male, age 6 weeks
Conditions: in vivo, po, 0 mg/kg, […], tissue Blood, route gavage, dose level Control, time 7 day
Quick reminder: number only, in x10_4/ul, skip the unit.

Q. # input molecule: "CC(C)NNC(=O)c1ccncc1" ; wanted: its RBC
A. 642.8

Q. And "Cc1nnc2n1-c1ccc(Cl)cc1C(c1ccccc1Cl)=NC2" ?
A. 665.6

Q. And "COC(=O)C1=C(C)NC(C)=C(C(=O)OC)C1c1ccccc1[N+](=O)[O-]" ?
A. 656.4

Q. And NC1=NC(=O)C(c2ccccc2)O1 (stereo not drawn) ?
A. 638.2

Q. And "CNC(=C[N+](=O)[O-])NCCSCc1ccc(CN(C)C)o1" ?
A. 639

Q. And "Brc1ccccc1" ?
A. 630.4

Q. And CN(C)CCC(c1ccc(Cl)cc1)c1ccccn1 (stereo not drawn) ?
A. 684.8

Q. And CN1C(=O)CCS(=O)(=O)C1c1ccc(Cl)cc1 (stereo not drawn) ?
A. 627.6

Q. And "CCOc1ccc(NC(C)=O)cc1" ?
A. 656.2

Q. And "CCCc1cc(=O)[nH]c(=S)[nH]1" ?
A. 643.8

Q. And "Nc1c2c(nc3ccccc13)CCCC2" ?
A. 639.4

Q. And "O=C(OC[C@H]1O[C@@H](OC(=O)c2cc(O)c(O)c(OC(=O)c3cc(O)c(O)c(O)c3)c2)[C@H](OC(=O)c2cc(O)c(O)c(OC(=O)c3cc(O)c(O)c(O)c3)c2)[C@@H](OC(=O)c2cc(O)c(O)c(OC(=O)c3cc(O)c(O)c(O)c3)c2)[C@@H]1OC(=O)c1cc(O)c(O)c(OC(=O)c2cc(O)c(O)c(O)c2)c1)c1cc(O)c(O)c(OC(=O)c2cc(O)c(O)c(O)c2)c1" ?
A. 598

Q. And "CN/C(=N/CCSCc1nc[nH]c1C)NC#N" ?
A. 649
